Where these numbers come from: paper PMC10786919

experiment: Lactate dehydrogenase (LDH) release assay; assay type: cell-based; conditions: LDH: Cytotoxicity assay: EC50
pEC50: −log10 of the molar value. Positions of bridges follow the written chain, without caps; N, C: chain ends. Non-standard residues stand in square brackets, D forms with d. Residues, ends and D or L forms follow the SMILES beside them. Lys(N3) = [N-]=[N+]=NCCCC[C@H](N)C(=O)O; R8 = C=CCCCCCC[C@@](C)(N)C(=O)O; Cba = N[C@@H](CC1CCC1)C(=O)O; S5 = C=CCCC[C@](C)(N)C(=O)O; βAla = NCCC(=O)O
reported.endpoint: pEC50

The compound listed as CC(=O)N[C@@H](CCCCN=[N+]=[N-])C(=O)NCCC(=O)N[C@@H](CC(C)C)C(=O)N[C@H](C(=O)N[C@@H](CCC(=O)O)C(=O)N[C@]1(C)CCCCCCC=CCCC[C@@](C)(C(=O)N[C@@H](CO)C(=O)N[C@@H](C)C(=O)N[C@@H](C)C(N)=O)NC(=O)[C@H](CC2CCC2)NC(=O)[C@H](CCC(N)=O)NC(=O)[C@H](C)NC(=O)[C@H](Cc2c[nH]c3ccccc23)NC(=O)[C@H](Cc2ccc(O)cc2)NC(=O)[C@H](Cc2ccccc2)NC1=O)[C@@H](C)O [MP-123] (Ac-[Lys(N3)][βAla]LTE[R8]FYWAQ[Cba][S5]SAA-NH2; staple 6-13) has a reported pEC50 of < 4.29

The compound listed as CC(=O)N[C@@H](CCCCN)C(=O)NCCCCCC(=O)N[C@H](C(=O)N[C@@H](CO)C(=O)N[C@@H](Cc1ccccc1)C(=O)N[C@]1(C)CCCCCCC=CCCC[C@@](C)(C(N)=O)NC(=O)[C@H](CC(C)C)NC(=O)[C@H](CC(C)C)NC(=O)[C@H](C)NC(=O)[C@H](Cc2c[nH]c3ccccc23)NC(=O)[C@H](Cc2ccc(O)cc2)NC(=O)[C@H](CCC(=O)O)NC1=O)[C@@H](C)O [MP-716] has a reported pEC50 of < 4.29

The compound listed as CC(=O)N[C@@H](C)C(=O)N[C@@H](C)C(=O)N[C@@H](C)C(=O)N[C@@H](C)C(=O)N[C@@H](CC(C)C)C(=O)N[C@H](C(=O)N[C@@H](Cc1ccccc1)C(=O)N[C@]1(C)CCCCCCC=CCCC[C@@](C)(C(=O)N[C@@H](CO)C(=O)N[C@@H](C)C(=O)N[C@@H](C)C(N)=O)NC(=O)[C@H](CC2CCC2)NC(=O)[C@H](CCC(N)=O)NC(=O)[C@H](C)NC(=O)[C@H](Cc2c[nH]c3ccccc23)NC(=O)[C@H](Cc2ccc(O)cc2)NC(=O)[C@H](CCC(=O)O)NC1=O)[C@@H](C)O [MP-360] has a reported pEC50 of < 4.30

The compound listed as CC(=O)N[C@@H](CCCCN=[N+]=[N-])C(=O)NCCC(=O)N[C@@H](CO)C(=O)N[C@H](C(=O)N[C@@H](Cc1ccccc1)C(=O)N[C@]1(C)CCCCCCC=CCCC[C@@](C)(C(=O)N[C@@H](CO)C(=O)N[C@@H](C)C(=O)N[C@@H](C)C(N)=O)NC(=O)[C@H](CC2CCC2)NC(=O)[C@H](CCC(N)=O)NC(=O)[C@H](CO)NC(=O)[C@H](Cc2c[nH]c3ccccc23)NC(=O)[C@H](Cc2ccc(O)cc2)NC(=O)[C@H](CO)NC1=O)[C@@H](C)O [MP-5493] (Ac-[Lys(N3)][βAla]STF[R8]SYWSQ[Cba][S5]SAA-NH2; staple 6-13) has a reported pEC50 of < 4.30

The compound listed as CC(=O)N[C@@H](CCCCN=[N+]=[N-])C(=O)NCCC(=O)N[C@@H](CC(C)C)C(=O)N[C@H](C(=O)N[C@@H](Cc1ccccc1)C(=O)N[C@]1(C)CCCCCCC=CCCC[C@@](C)(C(=O)N[C@@H](CO)C(=O)N[C@@H](C)C(=O)N[C@@H](C)C(N)=O)NC(=O)[C@H](CC2CCC2)NC(=O)[C@H](CCC(N)=O)NC(=O)[C@H](C)N(C)C(=O)[C@H](Cc2c[nH]c3ccccc23)NC(=O)[C@H](Cc2ccc(O)cc2)NC(=O)[C@H](CCC(=O)O)NC1=O)[C@@H](C)O [MP-498] has a reported pEC50 of < 4.30
